system: 786-0; assay: cells; format: functional, cell-based, Homo sapiens; conditions: Homo sapiens
Description: SANGER: Inhibition of human 786-0 cell growth in a cell viability assay.
Each entry below carries its reported IC50.

Cn1cc(C2=C(c3ccc(Cl)cc3Cl)C(=O)NC2=O)c2ccccc21 > 10 µM

Given item Cc1cc([C@@H](C)Nc2ccccc2C(=O)O)c2nc(N3CCOCC3)cc(=O)n2c1 , the value recorded as its IC50 is 1.31 µM

Given item Cc1ccc(Nc2nccc(N(C)c3ccc4c(C)n(C)nc4c3)n2)cc1S(N)(=O)=O , the value recorded as its IC50 is > 8 µM

====

system: MC-IXC; assay: cells; assay type: functional, cell-based, Homo sapiens; conditions: Homo sapiens, MC-IXC;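 also: growth inhibition of MC-IXC cells, read out with a cell viability assay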
Description: SANGER: Inhibition of human MC-IXC cell growth in a cell viability assay.
Measured endpoint: IC50 (nM)
Number only, in nM; omit the unit.

Check out these entries, answers already filled in.
Molecule	Result units	Value reported
CCC1=C[C@@H]2CN(C1)Cc1c([nH]c3ccccc13)[C@@](C(=O)OC)(c1cc3c(cc1OC)N(C)[C@H]1[C@@](O)(C(=O)OC)[C@H](OC(C)=O)[C@]4(CC)C=CCN5CC[C@]31[C@@H]54)C2 [VINORELBINE]	nM	1.49
Cn1cncc1[C@@](N)(c1ccc(Cl)cc1)c1ccc2c(c1)c(-c1cccc(Cl)c1)cc(=O)n2C [TIPIFARNIB]	nM	2760
C[C@]1(O)C[C@@H](c2nc(-c3ccc4ccc(-c5ccccc5)nc4c3)c3c(N)nccn32)C1 [LINSITINIB]	nM	1990

Pending molecule:
Given item COC(=O)CNC(=O)C(=O)OC , the value recorded as its IC50 is 96700
